Assay: NCI Yeast Anticancer Drug Screen. Data for the wt2 strain (AID 169);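 also: 0% = growth of vehicle-treated yeast cultures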
Conditions: S. cerevisiae wt2 strain growth inhibition; at 3.7 µM
The panel holds about 79,000 compounds, 15% with a hit somewhere; the sample as a whole holds those more often. Calls of active or inactive are those of the source. Rule as the data show it: active = growth inhibition above about 70%; inactive = the rest.
A correct response names exactly one class from y = active, n = inactive

Q: Per the assay record, what outcome was assigned to `O=C(O)/C=C\C(=O)Nc1ccc2c(c1)Cc1cc(Cl)ccc1-2` ?
A: n

Q: Per the assay record, what outcome was assigned to `O=C(Cc1ccccc1)NNc1nc(NNC(=O)c2ccncc2)nc(Nc2ccc([N+](=O)[O-])cc2)n1` ?
A: n

Q: Per the assay record, what outcome was assigned to `OB(O)c1ccccc1C#Cc1ccccc1` ?
A: n

###

Consider the following molecules; for each one, report its growth inhibition.
Test: NCI Yeast Anticancer Drug Screen. Data for the mgt1 strain (AID 153)
Details: S. cerevisiae mgt1 mutant growth inhibition; at 3.7 µM; stronger effect = higher value
Compounds without any hit were thinned out: in the full panel of roughly 79,000, 15% have a hit. Residues, ends and D or L forms follow the SMILES beside them. *: point of attachment. Fmoc = O=C(OCC1c2ccccc2-c2ccccc21)*; Boc = CC(C)(C)OC(=O)*
Answers are plain numbers, in %.

Would you please look over these solved cases?
{"molecule": "CCCCN(CCC#N)c1ccc(/C=C/c2ccnc3ccccc23)cc1", "reported_endpoint": "growth inhibition", "measured_number": -9}
{"molecule": "O=C(NOC(=O)c1ccc([N+](=O)[O-])cc1)c1ccc(Cl)cc1", "reported_endpoint": "growth inhibition", "measured_number": -33}
{"molecule": "O=[N+]([O-])c1cc(Cl)ccc1S(=O)(=O)c1ccc(Cl)cc1[N+](=O)[O-]", "reported_endpoint": "growth inhibition", "measured_number": -27}
{"molecule": "CN(C)CCCn1c2c3ccccc3ccc2c2oc(=O)c3ccccc3c21", "reported_endpoint": "growth inhibition", "measured_number": 33}
{"molecule": "CCC(=O)C1=C(O)c2cc(OC)ccc2CC1C(=O)OC (stereo unspecified)", "reported_endpoint": "growth inhibition", "measured_number": -1}
{"molecule": "O=C1C(=O)N(c2ccccc2)[C@@]2(c3ccccc3)C(=Nc3ccccc3)OC(c3ccccc3)=C12", "reported_endpoint": "growth inhibition", "measured_number": -1}
{"molecule": "CCC1(O)C(=O)OCc2c1cc1n(c2=O)Cc2cc3c(N)cccc3nc2-1 (stereo unspecified)", "reported_endpoint": "growth inhibition", "measured_number": -15}
{"molecule": "CC(C)(C)OC(=O)NCCCCC(NC(=O)C(Cc1c[nH]c2ccccc12)NC(=O)OCC1c2ccccc2-c2ccccc21)C(=O)O (stereo unspecified) (Fmoc-Trp-Lys(Boc)-OH; configuration not given here)", "reported_endpoint": "growth inhibition", "measured_number": 2}
{"molecule": "O=C1C=C(NCCc2cc(Br)c(O)c(Br)c2)C(=O)c2ncccc21", "reported_endpoint": "growth inhibition", "measured_number": 15}
{"molecule": "CCCC/C=C1\\CCC(CN2CCCC2)C1=O (stereo unspecified)", "reported_endpoint": "growth inhibition", "measured_number": 21}

Quick batch: growth inhibition for everything below.
1. CCOC(=O)C(Cc1c2ccccc2cc2ccccc12)(NC(C)=O)C(=O)OCC
2. O=C(O)C(=Cc1ccc(-c2ccccc2)cc1)C(=O)O
3. COc1ccc(C2CC(C)(N3CCCC3)Oc3cc4c(cc32)OCO4)cc1 (stereo unspecified)
4. Cc1c2c(nc3ccccc13)C(=O)c1cccnc1C2=O
5. COc1ccc(-c2cc(-c3cc(C)cc(Cl)c3O)nc3[nH]c(=S)[nH]c(=S)c23)cc1
6. COc1ccc2nc3cccc([N+](=O)[O-])c3c(NCCCCCC(=O)O)c2c1

A:
1. -2
2. 4
3. -1
4. -1
5. -2
6. 26

###

Consider the following compounds; for each one, report its growth inhibition.
Assay: NCI Yeast Anticancer Drug Screen. Data for the CLN2oe strain (AID 163);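 also: 0% = growth of vehicle-only control cultures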
Details: S. cerevisiae CLN2oe strain, at 3.7 µM, stronger effect = higher value
This is part of a sample that, as a whole, favours compounds with a hit. Of some 79,000 tested, about 15% had one in any assay.
Numbers only, in %.

Would you please look over these solved cases?
{"compound": "CCOc1ccc(N)c(S)c1", "growth inhibition (%)": -6}
{"compound": "CCC(/C=C/c1ccccc1)=N\\Nc1ccc(Cl)cc1", "growth inhibition (%)": 1}
{"compound": "O=C(CCSC1=NCCCN1)c1ccc(F)cc1", "growth inhibition (%)": -7}
{"compound": "O=C1C(=C2CCCC2)CCC1CN1CCCCC1 (stereo unspecified)", "growth inhibition (%)": 11}

Quick batch: growth inhibition for everything below.
1. COc1cc([C@@H]2c3cc4c(cc3[C@@H](NC(=O)NO)[C@H]3COC(=O)[C@H]23)OCO4)cc(OC)c1O
2. O=C1C(CCSc2ccccc2)C(=O)N(c2ccccc2)C1c1ccccc1 (stereo unspecified)
3. COc1ccc2nc3cccc([N+](=O)[O-])c3c(NCCNCCN(C)C)c2c1
4. OC1(c2ccccc2)C2CC=CC2C1(c1ccccc1)c1ccccc1 (stereo unspecified)
5. COc1ccc2cc3c4cc5c(cc4cc[n+]3cc2c1OC)OCO5
6. O=C(NCCNCCNC(=O)c1cc(-c2ccccc2)nc2ccccc12)c1cc(-c2ccccc2)nc2ccccc12
7. COc1cc(NCCCCNCC(C)(C)C)c2ncccc2c1

A:
1: -7; 2: 2; 3: -2; 4: 8; 5: 29; 6: -2; 7: 2

###

Consider the following compounds; for each one, report its growth inhibition.
Experiment: NCI Yeast Anticancer Drug Screen. Data for the mlh1 rad18 strain (AID 175)
Details: S. cerevisiae mlh1 rad18 strain growth inhibition; at 50.0 µM; stronger effect = higher value
Compounds without any hit were thinned out: in the full panel of roughly 79,000, 15% have a hit.
Answers are plain numbers, in %.

Would you please look over these solved cases?
{"compound": "CCN(CC)CC(=O)c1ccc2cc(Cl)c3ccccc3c2c1", "measured_number": 99.2}
{"compound": "Oc1c2c(c(O)c3ccccc13)C1(N=N2)c2ccccc2Oc2ccccc21", "measured_number": 98}
{"compound": "C/C(=N\\Sc1ccccc1)c1ccccc1O", "measured_number": 94.2}
{"compound": "Nc1cc2c(cc1N)-c1ccccc1C2=O", "measured_number": 68.7}

Quick batch: growth inhibition for everything below.
1. C/C1=C/C2OC(=O)C3(C)C2C(CC2(C)OC1=CC2=O)OC3(O)C(C)C (stereo unspecified)
2. NC(N)=NS(=O)(=O)c1ccc(Nc2c3ccccc3nc3c(C(=O)NC(CO)(CO)CO)cccc23)cc1
3. COc1c2c(c3c(c1CCC(=O)O)OC(C)(C)C=C3)OC(C)(C)C=C2

A:
[-6.1, 15.7, 76.4]

Quick batch: growth inhibition for everything below.
1. COC1=CCC23C(=O)C=CC(=O)C2(C1)C(=O)c1ccccc1C3=O (stereo unspecified)
2. Nc1ccc(N=Nc2ccc(-c3ccc(O)cc3)cc2)c2ccc(S(=O)(=O)O)cc12
3. N#C/C(=C\NC(=S)Nc1ccc(S(N)(=O)=O)cc1)C(=O)c1ccc2ccccc2c1
4. CCCCCc1c(CCCC)c(=O)[nH]c2cc(CNCC(OC)OC)ccc12

A:
[68.2, 55.1, 22.1, 87]

###

Consider the following compounds; for each one, report its growth inhibition.
Test: NCI Yeast Anticancer Drug Screen. Data for the rad14 strain (AID 159);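 also: 0% = growth of vehicle-treated control cultures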
Conditions: S. cerevisiae rad14 strain growth inhibition; at 100.0 µM; stronger effect = higher value
This is part of a sample that, as a whole, favours compounds with a hit. Of some 79,000 tested, about 15% had one in any assay.
Answers are plain numbers, in %.

{"compound_string": "O=C(O)/C=C\\C(=O)Nc1ccc2c(c1)Cc1cc(Cl)ccc1-2", "growth inhibition (%)": 29}
{"compound_string": "CC(C)OP(=O)(OC(C)C)/C(Cl)=N/Nc1ccc([N+](=O)[O-])cc1", "growth inhibition (%)": 80}

Quick batch: growth inhibition for everything below.
1. O=C1c2cccc3cccc(c23)C(=O)N1CCNCCN1C(=O)c2cccc3cccc(c23)C1=O
2. Nc1cc(Cl)ccc1Nc1ccccc1
3. CCCNC(=O)OCc1c(COC(=O)NCCC)c(-c2ccc(Cl)c(Cl)c2)n2c1CCC2

A:
1: 4; 2: 87; 3: 73

###

Experiment: NCI Yeast Anticancer Drug Screen. Data for the rad14 strain (AID 159);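 also: 0% = growth of vehicle-treated control cultures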
Conditions: S. cerevisiae rad14 strain growth inhibition; at 100.0 µM; stronger effect = higher value
Compounds without any hit were thinned out: in the full panel of roughly 79,000, 15% have a hit.
reported_endpoint: growth inhibition (%)
Answers are plain numbers, in %.

{"compound": "O=[N+]([O-])/C=C/c1cc2ccc3ccccc3c2[nH]1", "measured_number": 91}
{"compound": "Nc1ccc2c(c1)C(=O)c1c(F)cccc1-2", "measured_number": 78}
{"compound": "CC1(C)OC(=O)C(=Cc2ccc([N+](=O)[O-])s2)C(=O)O1", "measured_number": 99}
{"compound": "CSC(=S)N/N=C/c1ccccc1", "measured_number": 29}
{"compound": "CN1C(=O)C(CC(=O)O)NC1=S (configuration not stated)", "measured_number": 39}
{"compound": "CC1CCC(C2=CSC3CCCCC3N2)CC1 (configuration not stated)", "measured_number": 76}

Quick batch: growth inhibition for everything below.
1. O=C1C(=O)c2cccc([N+](=O)[O-])c2-c2ccccc21
2. COc1ccccc1/C=C\C(=O)C1COCN1 (configuration not stated)
3. Cc1ccccc1NC(=O)c1c(C)oc2c1C(=O)c1ccccc1C2=O

A:
[98, 99, 93]

Quick batch: growth inhibition for everything below.
1. C/C(=N\OCC(O)CNCCSCc1ccccc1)c1ccccc1Cl (configuration not stated)
2. CO[C@@]1([C@@H](Cl)c2ccccc2)C(=O)N(C)/C(=C\c2ccccc2)C(=O)N1C
3. O=c1c2ccccc2nc(-c2ccc(Cl)cc2)n1O

A:
1. 99
2. 11
3. 98
